# test-name: qHTS assay to test for compound auto fluorescence at 535 nm (green) in HEK293 cells (AID 720680); further: on the % scale 0 is the no-effect control and ±100 the full control effect
# stated-conditions: green autofluorescence 485/535 nm; series mostly up to 91.3 µM
Calls of active or inactive are those of the source. The call rests on the fitted dose curve; in most records, active means well fitted curve in the direction sought with a large enough effect in the repeat runs; inconclusive means weak or mixed curves; inactive means flat fitted curve, though single readings scatter.
observed-property: fluorescence, % of fluorescein

compound-smiles | reported-value
CCCCCCCC[Si](OCC)(OCC)OCC | inactive
COc1cc2c3cc1Oc1cc(ccc1O)C[C@@H]1c4c(cc(OC)c(O)c4Oc4ccc(cc4)C[C@@H]3N(C)CC2)CC[N+]1(C)C | inactive
NS(=O)(=O)c1ccccc1OC(F)(F)F | inactive

====

# test-name: qHTS assay for identifying genotoxic compounds that show differential cytotoxicity against isogenic chicken DT40 cell lines with known DNA damage response pathways - Rev3 mutant cell line (AID 743014); further: nearly all actives have a fitted effect of over 55% in size
# stated-conditions: chicken DT40 Rev3-/- viability, CellTiter-Glo, 40 h; series mostly up to 68.4 µM
Inconclusive results are not listed. Activity calls are given as the source filed them. The call rests on the fitted dose curve; in most records, active means well fitted cell-killing curve with a large enough effect in the repeat runs; inconclusive means weak or mixed curves, or effect the other way; inactive means no such curve, though single readings can be large or run the other way.
Answer with one of the outcomes given here: 1 for active, 0 for inactive

Example cases with answers are listed next.
compound | class-assignment
CC(=O)c1ccc2c(c1)CCCC2 | 0
O=C1NC2NC(=O)NC2N1 (stereo not given) | 0
Cc1ccc2c(c1)c1c3n2CCNC3CCC1 (stereo not given) | 1
COc1cc(C=O)ccc1OC(=O)C(C)C | 0
CC(C)CCO | 0
CCCCC(=O)N(C)C | 0

Fill in: this test's call for "CCCCCCCCCCCCCCCC(=O)NCCO" is ___ 0

Fill in: this test's call for "O=C(O)c1ccccc1C(=O)OCc1ccccc1" is ___ 0

Fill in: this test's call for "O=S(=O)(O)SSS(=O)(=O)O" is ___ 0

Fill in: this test's call for "O=C(O)/C=C/c1ccccc1" is ___ 0

Fill in: this test's call for "CCOC(=O)CCc1ccccc1" is ___ 0

Fill in: this test's call for CCCCC(CC)COC(=O)c1ccccc1 (stereo not given) is ___ 0

Fill in: this test's call for Cc1ncc([N+](=O)[O-])n1CC(O)CCl (stereo not given) is ___ 0

Fill in: this test's call for "CCS(=O)(=O)CCn1c([N+](=O)[O-])cnc1C" is ___ 0

Fill in: this test's call for "Nc1cc(Cl)cc(S(=O)(=O)O)c1O" is ___ 0

Fill in: this test's call for "Nc1c(NC/C=C\COc2cc(CN3CCCCC3)ccn2)c(=O)c1=O" is ___ 0

Fill in: this test's call for "Nc1ccnc(=O)[nH]1" is ___ 0

Fill in: this test's call for "C[C@H]1O[C@H](O[C@H]2[C@H](O)[C@@H](O)[C@@H](O[C@H]3[C@H](O)[C@@H](O)[C@H](O)O[C@@H]3CO)O[C@@H]2CO)[C@H](O)[C@@H](O)[C@@H]1N[C@H]1C=C(CO)[C@@H](O)[C@H](O)[C@H]1O" is ___ 0

Fill in: this test's call for "CCNC(=O)/C=C/c1cccc(Br)c1" is ___ 0

Fill in: this test's call for CCCCC(C)C(=O)O (stereo not given) is ___ 0

Fill in: this test's call for "C=C[C@@H](C)CCC=C(C)C" is ___ 0

Fill in: this test's call for CCC1COC(=O)O1 (stereo not given) is ___ 0

Fill in: this test's call for "O=C1OC(=O)c2ccccc21" is ___ 0
